Numbers sourced from patent US20170166894A1.

biological target: IL-23 (p40/p19 heterodimer), endogenous from activated monocytes (Homo sapiens, UniProt P29460;Q9NPF7 SEQ:23-328,SEQ:20-189); assay: cell_activity; STAT3 activation in PHA blasts, endogenous IL-23
Sequence (P29460 23-328, chain 1 of 2): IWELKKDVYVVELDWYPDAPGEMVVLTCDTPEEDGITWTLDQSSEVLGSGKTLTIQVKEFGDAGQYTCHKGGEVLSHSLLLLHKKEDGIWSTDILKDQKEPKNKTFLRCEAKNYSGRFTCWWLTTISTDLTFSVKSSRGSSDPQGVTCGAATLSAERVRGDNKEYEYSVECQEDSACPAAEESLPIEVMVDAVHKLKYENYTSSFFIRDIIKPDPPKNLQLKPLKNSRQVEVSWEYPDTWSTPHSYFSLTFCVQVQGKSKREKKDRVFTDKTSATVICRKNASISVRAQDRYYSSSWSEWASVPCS
Sequence (Q9NPF7 20-189, chain 2 of 2): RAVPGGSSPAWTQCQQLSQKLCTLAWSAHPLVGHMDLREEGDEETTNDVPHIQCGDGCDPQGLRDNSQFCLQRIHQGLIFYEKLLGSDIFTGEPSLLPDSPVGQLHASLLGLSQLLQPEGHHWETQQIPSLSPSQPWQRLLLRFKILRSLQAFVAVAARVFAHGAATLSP
assayReadout: IC50
State the result as a value with its unit after it.

Lookup: State its IC50 for this binder: ARC20122 (ssRNA, 2'-OMe A and G, 2'-F C and U (mA,mG,fC,fU)) RNA: GGAGGGAAAAGUUAUCAGGCUUCUAUCGGGCGCCGCGUUUUCCCUGUGUUAGCCAUCGUCCGACGAGUAGGCUAGUCUGAUGCC
Found: 0.26 nM
